Test: Preliminary pharmacokinetics in SD rats
Type: in vivo
Conditions: male, SD, rat, plasma, iv, 2 mg/kg, i.v. 2 mg/kg, 0.5 h; read-out: Concentration of BH in rat plasma, Mean
Outcome measure: concentration at 0.5 h (ng/mL)
Give bare numbers, in ng/mL.

Quick check: concentration at 0.5 h of CC1=CC(=O)[C@@H](O)[C@]2(C)[C@H]3[C@@H](O)[C@H](O)[C@@]4(CO)OC[C@@]35[C@@H](C[C@@H]12)OC(=O)[C@H](O)[C@]54O ? 236

---

Assay: Preliminary pharmacokinetics in SD rats
Format: in vivo
Details: male, SD, rat, plasma, po, 10 mg/kg, p.o. 10 mg/kg, 24 h; read-out: Concentration of BH in rat plasma, Mean
Outcome measure: concentration at 24 h (ng/mL)
Give bare numbers, in ng/mL.

Quick check: concentration at 24 h of CC1=CC(=O)[C@@H](O)[C@]2(C)[C@H]3[C@@H](O)[C@H](O)[C@@]4(CO)OC[C@@]35[C@@H](C[C@@H]12)OC(=O)[C@H](O)[C@]54O ? 3.33

---

Assay: Preliminary pharmacokinetics in SD rats
Format: in vivo
Settings: male, SD, rat, plasma, iv, 2 mg/kg, i.v. 2 mg/kg, 12 h; read-out: Concentration of BH in rat plasma, Mean
Outcome measure: concentration at 12 h (ng/mL)
One number for each entry, in ng/mL.

Quick check: concentration at 12 h of CC1=CC(=O)[C@@H](O)[C@]2(C)[C@H]3[C@@H](O)[C@H](O)[C@@]4(CO)OC[C@@]35[C@@H](C[C@@H]12)OC(=O)[C@H](O)[C@]54O ? 17.9

---

Assay: Preliminary pharmacokinetics in SD rats
Type: in vivo
Conditions: male, SD, rat, plasma, iv, 2 mg/kg, rat, i.v.; read-out: Vz, individual rats No1-No3
Outcome measure: Vd (L/kg)
Numbers only, in L/kg.

Quick check: Vd of CC1=CC(=O)[C@@H](O)[C@]2(C)[C@H]3[C@@H](O)[C@H](O)[C@@]4(CO)OC[C@@]35[C@@H](C[C@@H]12)OC(=O)[C@H](O)[C@]54O ? 18.6

---

Assay: Preliminary pharmacokinetics in SD rats
Format: in vivo
Details: male, SD, rat, plasma, po, 10 mg/kg, p.o. 10 mg/kg, 6 h; read-out: Concentration of BH in rat plasma, Mean
Outcome measure: concentration at 6 h (ng/mL)
Give bare numbers, in ng/mL.

Quick check: concentration at 6 h of CC1=CC(=O)[C@@H](O)[C@]2(C)[C@H]3[C@@H](O)[C@H](O)[C@@]4(CO)OC[C@@]35[C@@H](C[C@@H]12)OC(=O)[C@H](O)[C@]54O [BH, Bruceine H] ? 80.5

---

Experiment: Preliminary pharmacokinetics in SD rats
Assay type: in vivo
Settings: male, rat, plasma; SD rats, 10 mg/kg po vs 2 mg/kg iv; read-out: Oral bioavailability (F)
Outcome measure: bioavailability (%)
Give bare numbers, in %.

Quick check: bioavailability of CC1=CC(=O)[C@@H](O)[C@]2(C)[C@H]3[C@@H](O)[C@H](O)[C@@]4(CO)OC[C@@]35[C@@H](C[C@@H]12)OC(=O)[C@H](O)[C@]54O ? 20.4
